Assign Kapp Calf Thymus DNA to each entry below.
system: calf thymus DNA; experiment: Ethidium displacement assay, apparent binding constant, calf thymus DNA; conditions: apparent association constant, ± 0.2 × 10^5 M^−1
Output spec: scalar in M⁻¹, unitless text.

input: Please tell me: Kapp Calf Thymus DNA of COc1cc(C(=O)Nc2ccc(N)nc2)cc(OC)c1OC [Compound 6] , system calf thymus DNA?
output: 400000

input: Please tell me: Kapp Calf Thymus DNA of COc1cc(/C=C/C(=O)Nc2ccc(F)c(N)c2)cc(OC)c1OC [Compound 17] , system calf thymus DNA?
output: 180000

input: Please tell me: Kapp Calf Thymus DNA of COc1cc(C(=O)Nc2cc(N)ccc2Cl)cc(OC)c1OC [Compound 5] , system calf thymus DNA?
output: 270000

input: Please tell me: Kapp Calf Thymus DNA of COc1cc(/C=C/C(=O)Nc2ccc(Cl)c(N)c2)cc(OC)c1OC [Compound 16] , system calf thymus DNA?
output: 130000

input: Please tell me: Kapp Calf Thymus DNA of COc1cc(OC)cc(C(=O)Nc2cnc(N)nc2)c1 [Compound 10] , system calf thymus DNA?
output: 260000
